# assay-text: Dynamic Vapor Sorption (DVS) analysis / hygroscopicity of salt forms
# Assay type: physicochemical
# run-parameters: Table 4; DVS at 25° C.
property-measured: Hygroscopicity

molecule="CC(C)(C)N.O=C(O)[C@H]1C[C@@H](OC(F)(F)F)C1 [VIa-1a, TBA salt Form A]" property_measured=Hygroscopicity observed_measurement=non-
molecule="NC(CO)(CO)CO.O=C(O)[C@H]1C[C@@H](OC(F)(F)F)C1 [VIa-1a, TMA salt Form A]" property_measured=Hygroscopicity observed_measurement=non-
molecule="C1CCC(NC2CCCCC2)CC1.O=C(O)[C@H]1C[C@@H](OC(F)(F)F)C1 [VIa-1a, DCHA salt Form A]" property_measured=Hygroscopicity observed_measurement=non-

The reported numbers originate from patent US20250376432A1.
